Recorded Percentage of CSF-1 expressed values for a group of substances are listed next.
# Tested on: CSF-1
# Experiment notes: Quantification of CSF-1 secreted by NS2T2A1 cells transfected with oligonucleotides (ELISA)
# Format: cell-based, human
# Measurement context: 250 nM oligonucleotide with 2.4 μg/ml cytofectin GS-3815, ELISA of culture medium 24 h after beginning of transfection, relative to non-transfected cell line
# Procedure: Line NS2T2A1 is a line of cells from the human breast (Ma et al., Int. J. Cancer, 1998, 78: 112-119) obtained by mammoplasty, transformed by SV40. This line secretes CSF-1 linearly as a function of the cell growth. […] The quantity of CSF-1 secreted in the culture medium of NS2T2A1 cells was-measured by an ELISA test, 24 h after the beginning of the transfection, referring strictly to the protocol described by the supplier (R&D systems, Europe Ltd, UK). […]
Measure name: Percentage of CSF-1 expressed (%)

Substance: SEQ ID No. 3: phosphorothioate oligonucleotide with pdU/pdC base substitutions, hybridising region 284-301 of SEQ ID No. 1 (CSF-1) (UCUGGAGCAGGUUAAU; listed as RNA, chemistry not fully specified)
Measure name: Percentage of CSF-1 expressed
Obs value: 39
--
Substance: SEQ ID No. 5: phosphorothioate oligonucleotide with pdU/pdC base substitutions, hybridising region 409-426 of SEQ ID No. 1 (CSF-1) (UUGUGGCGGUUAGGGUAG; listed as RNA, chemistry not fully specified)
Measure name: Percentage of CSF-1 expressed
Obs value: 90
--
Substance: SEQ ID No. 2: phosphorothioate oligonucleotide with pdU/pdC base substitutions, hybridising region 135-152 of SEQ ID No. 1 (CSF-1) (GGGAGGGUGCUGUACCGA; listed as RNA, chemistry not fully specified)
Measure name: Percentage of CSF-1 expressed
Obs value: 70
--
Substance: SEQ ID No. 4: phosphorothioate oligonucleotide with pdU/pdC base substitutions, hybridising region 341-358 of SEQ ID No. 1 (CSF-1) (ACACGAUGGAAUUCUUCC; listed as RNA, chemistry not fully specified)
Measure name: Percentage of CSF-1 expressed
Obs value: 50

Where these numbers come from: patent US20050245471A1
